assay: chemical recovery into PDMS from spiked human plasma; higher = better extraction; details: pooled human plasma; extraction method: PES with PDMS; equilibration time (d): 3
Each entry gets 0 if its chemical recovery into PDMS stays under 40%, and 1 if its chemical recovery into PDMS is 40% or above.

Check out these entries, answers already filled in.
- compound: "O=S1OC[C@@H]2[C@H](CO1)[C@]1(Cl)C(Cl)=C(Cl)[C@]2(Cl)C1(Cl)Cl (stereo partly drawn) [beta-Endosulfan]"
  assigned class: 1
- compound: "NC(=O)N1c2ccccc2CC(O)c2ccccc21 (configuration not stated) [10,11-Dihydro-10-hydroxycarbamazepine]"
  assigned class: 0
- compound: "CCOC(=O)C(C)(C)Oc1ccc(Cl)cc1 [Clofibrate]"
  assigned class: 1
- compound: "Cc1cc(C2CC2)nc(Nc2ccccc2)n1 [Cyprodinil]"
  assigned class: 0
- compound: "COCCN(C(=O)CCl)c1c(C)cccc1C [Dimethachlor]"
  assigned class: 0

Identify whether the reported chemical recovery into PDMS of the following compound is 40% or greater: O=C1CCCC=CCCCCCCCCCC1 [Velvione]
1

Identify whether the reported chemical recovery into PDMS of the following compound is 40% or greater: CC(=O)c1cc(C(C)(C)C)cc2c1CCC2(C)C [Celestolide]
0

Identify whether the reported chemical recovery into PDMS of the following compound is 40% or greater: O=[N+]([O-])/N=C1\NCCN1Cc1ccc(Cl)nc1 [Imidacloprid]
0

Identify whether the reported chemical recovery into PDMS of the following compound is 40% or greater: C[C@H]1C[C@H]2[C@@H]3CCC4=CC(=O)C=C[C@]4(C)[C@@]3(F)[C@@H](O)C[C@]2(C)[C@@]1(O)C(=O)CCl [Clobetasol]
0

Identify whether the reported chemical recovery into PDMS of the following compound is 40% or greater: CC12CC3CC(C)(C1)CC(N)(C3)C2 [Memantine]
0

Identify whether the reported chemical recovery into PDMS of the following compound is 40% or greater: Nc1ccc2c(n1)[nH]c1ccccc12 [2-Amino-9H-pyrido[2,3-b]indole (AalphaC)]
0

Identify whether the reported chemical recovery into PDMS of the following compound is 40% or greater: CC(=O)[C@@]1(O)CC[C@H]2[C@@H]3C[C@H](C)C4=CC(=O)CC[C@]4(C)[C@H]3CC[C@@]21C [Medroxyprogesterone]
1
